These measurements were taken from patent US4568666A.

system: Human Rheumatoid Synovial Collagenase (Homo sapiens, UniProt P03956)
Construct: from tissue
measurement.notes: Collagenase inhibition (procedure of Cawston and Barrett, acetyl 14C collagen)
Format: biochemical
study.conditions: 37° C., 16 hours, native acetyl 14C collagen, Tris HCl-CaCl2 pH 7.6
Method: This was determined following the procedure of Cawston and Barrett, Anal. Biochem., 99, 340-345 (1979) whereby the 1 mM of the inhibitor being tested or dilutions thereof are incubated at 37° C. for 16 hours with native collagen and collagenase (buffered with Tris HCl--CaCl2; pH 7.6). The collagen is acetyl ^14 C collagen. The samples are centrifuged to sediment undigested collagen and an aliquot of the radiactive supernatant removed for assay on a scintillation counter as a measure of hydrolysis. […]
parameter.measured: log10 IC50 (log10 of the value in µM)
Scale type: logarithmic (base 10). Underlying IC50 unit: µM.

Reference set, count: 5
compound: CNC(=O)[C@H](Cc1ccc(OC)cc1)NC(=O)[C@H](CC(C)C)N[C@H](CCCCNC(=O)[C@@H]1CCCN1C(C)=O)C(=O)O [Example 22]
log10 IC50: 1.62
//
compound: CCCCCOc1ccc(C[C@H](NC(=O)[C@H](CC(C)C)N[C@H](CCNC(=O)OCc2ccccc2)C(=O)O)C(=O)NC)cc1 [Example 29]
log10 IC50: -0.27
//
compound: CNC(=O)[C@H](Cc1ccc(OCc2ccccc2)cc1)NC(=O)[C@H](CC(C)C)N[C@H](C)C(=O)O [Example 5]
log10 IC50: 0.23
//
compound: CNC(=O)[C@H](Cc1ccc(OC)cc1)NC(=O)[C@H](CC(C)C)N[C@H](CCN)C(=O)O [Example 13]
log10 IC50: 1.96
//
compound: CNC(=O)[C@H](Cc1ccc(O)cc1)NC(=O)[C@H](CC(C)C)N[C@H](CCNC(=O)OCc1ccccc1)C(=O)O [Example 25]
log10 IC50: 0.08

Consider the compound shown here: CNC(=O)[C@H](Cc1ccc(OCc2ccccc2)cc1)NC(=O)[C@H](CC(C)C)N[C@H](CCNC(=O)OCc1ccccc1)C(=O)O [Example 32] What is its recorded log10 IC50?
-0.04

Could you tell me which log10 IC50 is on file for CC(C)C[C@H](N[C@H](CCNC(=O)OCc1ccccc1)C(=O)O)C(=O)NCCc1ccccc1 [Example 19] ?
1.71

Query (compound): CNC(=O)[C@H](Cc1ccc(OCCC(C)C)cc1)NC(=O)[C@H](CC(C)C)N[C@H](CCNC(=O)OCc1ccccc1)C(=O)O [Example 30] ; field requested: log10 IC50
0.04

What value of measured log10 IC50 is listed for CNC(=O)[C@H](Cc1ccc(OCCCCCC(C)C)cc1)NC(=O)[C@H](CC(C)C)N[C@H](CCNC(=O)OCc1ccccc1)C(=O)O [Example 31] ?
0.40

Returns the measured log10 IC50 for the input compound. Input: CNC(=O)[C@H](Cc1ccc(OC)cc1)NC(=O)[C@H](CC(C)C)N[C@H](CCSC)C(=O)O [Example 7]
0.74

---

system: Human Rheumatoid Synovial Collagenase (Homo sapiens, UniProt P03956)
Construct: from tissue
Sequence (P03956 100-469): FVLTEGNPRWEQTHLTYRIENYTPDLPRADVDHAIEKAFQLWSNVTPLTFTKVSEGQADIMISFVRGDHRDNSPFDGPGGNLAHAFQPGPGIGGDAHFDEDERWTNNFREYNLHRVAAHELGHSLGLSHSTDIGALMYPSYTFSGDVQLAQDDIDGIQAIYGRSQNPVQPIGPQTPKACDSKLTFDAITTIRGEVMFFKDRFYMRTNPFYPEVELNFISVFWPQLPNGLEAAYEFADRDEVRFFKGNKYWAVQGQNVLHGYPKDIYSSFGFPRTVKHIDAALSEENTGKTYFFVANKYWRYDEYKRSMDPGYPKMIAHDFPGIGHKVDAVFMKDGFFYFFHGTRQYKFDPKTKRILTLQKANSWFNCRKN
measurement.notes: Collagenase inhibition (procedure of Cawston and Barrett, acetyl 14C collagen)
Format: biochemical
study.conditions: 37° C., 16 hours, native acetyl 14C collagen, Tris HCl-CaCl2 pH 7.6
parameter.measured: IC50 (µM)
Lab book: enter the figure in µM, no units written.

compound.structure.string: CNC(=O)[C@H](Cc1ccc(OC(C)C)cc1)NC(=O)[C@H](CC(C)C)N[C@H](CCNC(=O)OCc1ccccc1)C(=O)O
u: µM
experimental.value: 2.1
//
compound.structure.string: CNC(=O)[C@H](Cc1ccc(OC)cc1)NC(=O)[C@H](CC(C)C)N[C@H](CCNC(=O)OCc1ccc([N+](=O)[O-])cc1)C(=O)O
u: µM
experimental.value: 1.2
//
compound.structure.string: CNC(=O)[C@H](Cc1ccc(O)cc1)NC(=O)[C@H](CC(C)C)N[C@H](CCNC(=O)c1ccccc1)C(=O)O
u: µM
experimental.value: 3.1

// moving on: another record for IC50
Consider the compound shown here: CNC(=O)[C@H](Cc1ccc(OC2CCCC2)cc1)NC(=O)[C@H](CC(C)C)N[C@H](CCNC(=O)OCc1ccccc1)C(=O)O What is its recorded IC50?
0.74

---

system: Human Rheumatoid Synovial Collagenase (Homo sapiens, UniProt P03956)
Construct: from tissue
measurement.notes: Collagenase inhibition (procedure of Cawston and Barrett, acetyl 14C collagen)
Type: biochemical
study.conditions: 37° C., 16 hours, native acetyl 14C collagen, Tris HCl-CaCl2 pH 7.6
Sorting guide: entries reporting IC50 beneath 1 µM go in the met pile, the rest go in the not met pile.

Previously resolved entries follow.
compound.structure.string: CCCCNC(=O)COc1ccc(C[C@H](NC(=O)[C@H](CC(C)C)N[C@H](CCNC(=O)OCc2ccccc2)C(=O)O)C(=O)NC)cc1
label: not met
//
compound.structure.string: CNC(=O)[C@H](Cc1ccc(OC)cc1)NC(=O)[C@H](CC(C)C)N[C@H](CCCNC(=O)OCc1ccccc1)C(=O)O
label: not met
//
compound.structure.string: CNC(=O)[C@H](Cc1ccc(OC)cc1)NC(=O)[C@H](CC(C)C)N[C@H](CCNC(=O)OCc1ccccc1)C(=O)O
label: met
//
compound.structure.string: CNC(=O)[C@H](Cc1ccc(OC)cc1)NC(=O)[C@H](CC(C)C)N[C@H](CCCCNC(=O)OCc1ccccc1)C(=O)O
label: not met

Is 1 µM strictly greater than the compound's reported IC50? compound: CCCOc1ccc(C[C@H](NC(=O)[C@H](CC(C)C)N[C@H](CCNC(=O)OCc2ccccc2)C(=O)O)C(=O)NC)cc1
met

---

Listed below: IC50 values for each entry.
system: Human Rheumatoid Synovial Collagenase (Homo sapiens, UniProt P03956)
Construct: from tissue
Sequence (P03956 100-469): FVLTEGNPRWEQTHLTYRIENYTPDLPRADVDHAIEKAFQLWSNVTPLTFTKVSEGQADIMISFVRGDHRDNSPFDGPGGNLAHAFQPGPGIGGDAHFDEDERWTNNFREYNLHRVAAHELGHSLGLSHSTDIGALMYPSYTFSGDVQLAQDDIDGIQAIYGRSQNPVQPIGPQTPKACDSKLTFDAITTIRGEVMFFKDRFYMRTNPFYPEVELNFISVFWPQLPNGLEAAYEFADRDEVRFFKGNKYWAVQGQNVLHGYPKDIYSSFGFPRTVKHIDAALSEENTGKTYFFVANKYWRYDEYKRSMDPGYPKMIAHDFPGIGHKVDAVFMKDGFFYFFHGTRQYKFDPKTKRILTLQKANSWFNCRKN
measurement.notes: Collagenase inhibition (procedure of Cawston and Barrett, acetyl 14C collagen)
Assay type: biochemical
study.conditions: 37° C., 16 hours, native acetyl 14C collagen, Tris HCl-CaCl2 pH 7.6
Expressed in µM, but write only the number.

# annotated cases, reported IC50 shown
compound.structure.string: CC(C)C[C@H](N[C@H](C)C(=O)O)C(=O)NCCc1ccccc1
IC50 [µM]: 42
//
compound.structure.string: CNC(=O)[C@H](Cc1ccc(OC(C)(C)C)cc1)NC(=O)[C@H](CC(C)C)N[C@H](CCNC(=O)OCc1ccccc1)C(=O)O
IC50 [µM]: 3.6
//
compound.structure.string: CNC(=O)[C@H](Cc1ccc(OC)cc1)NC(=O)[C@H](CC(C)C)N[C@H](CCNC(=O)c1ccc([N+](=O)[O-])cc1)C(=O)O
IC50 [µM]: 4.9

Consider now this further compound.
// IC50 lookup, key: CCCCNC(=O)[C@H](C)NC(=O)[C@H](CCCC)N[C@H](C)C(=O)O
19
